# target.system: human Edg-1 (S1P1) (Homo sapiens, UniProt P21453)
# Construct: expressed in transfected cells; host or cells: HEK-293
# Sequence (P21453 whole entry): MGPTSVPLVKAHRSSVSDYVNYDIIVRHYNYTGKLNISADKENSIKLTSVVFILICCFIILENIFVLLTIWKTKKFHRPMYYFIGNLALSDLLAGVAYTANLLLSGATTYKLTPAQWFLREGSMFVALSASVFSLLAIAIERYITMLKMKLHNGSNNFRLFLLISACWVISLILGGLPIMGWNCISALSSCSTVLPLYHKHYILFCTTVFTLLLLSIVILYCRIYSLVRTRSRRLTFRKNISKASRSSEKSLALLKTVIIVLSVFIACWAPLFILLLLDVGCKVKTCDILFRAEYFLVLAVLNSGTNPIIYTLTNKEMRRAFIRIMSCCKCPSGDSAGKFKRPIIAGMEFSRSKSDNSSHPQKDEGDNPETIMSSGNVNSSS
# experiment: S1P1 binding assay: inhibition of [33P]-S1P binding to membrane fraction of HEK-293 cells transferred with the human Edg-1 (S1P1) gene
# run.conditions: test compound at 10 μM; inhibition of [33P]-S1P binding to the membrane fraction of HEK-293 cells expressing human Edg-1 (S1P1)
Catalogue of inhibition at 10 µM readings, one per entry.
property.label: inhibition at 10 µM (%)

>>> df
                                    molecule  recorded_number
 0  CCCCc1ccc(Oc2nnc([C@@H](C)NS(=O)(=O)c3ccc(Cl)c(Cl)c3)n2CC)cc1 [Compound 32]              104
 1  CCn1c(Oc2ccc(F)cc2)nnc1[C@@H](C)NS(=O)(=O)c1ccccc1 [Compound 155]             59.9
 2  CCc1ccc(OC)c(S(=O)(=O)N[C@H](C)c2nnc(Oc3ccc(F)cc3)n2CC)c1 [Compound 311]             76.5
 3  CCn1c(Oc2ccc3cc[nH]c3c2)nnc1[C@@H](C)NS(=O)(=O)c1c(Cl)cccc1Cl [Compound 342]             53.6
 4  CCn1c(Oc2ccc(C(C)C)cc2)nnc1[C@@H](C)NS(=O)(=O)c1ccc(Cl)c(Cl)c1 [Compound 39]             98.5
 5  CCn1c(Oc2ccc(F)cc2)nnc1[C@@H](C)NS(=O)(=O)c1ccc(F)cc1Br [Compound 269]             91.5
 6  CCn1c(Oc2ccc(F)cc2)nnc1[C@@H](C)NS(=O)(=O)c1cc(F)cc(F)c1 [Compound 266]               99
 7  CCn1c(Oc2cccc(N(CCOC)CCOC)c2)nnc1[C@@H](C)NS(=O)(=O)c1ccc(Cl)c(Cl)c1 [Compound 100]              110
 8  CCn1c(Sc2ccc(C)cc2)nnc1[C@@H](C)NS(=O)(=O)c1ccc(Cl)c(Cl)c1 [Compound 55]             80.6
 9  CCn1c(Oc2cc(C(C)C)n(C)n2)nnc1[C@@H](C)NS(=O)(=O)c1ccc(Cl)c(Cl)c1 [Compound 99]              102
10  CCn1c(Oc2ccc(F)cc2)nnc1[C@@H](C)NS(=O)(=O)c1ccc(Cl)c(Cl)c1 [Compound 12]             99.2
11  CCn1c(Oc2ccc3cc[nH]c3c2)nnc1[C@@H](C)NS(=O)(=O)c1cccc(C)c1 [Compound 364]             87.5
12  CCn1c(Oc2cccc(N3CCN(C)CC3)c2)nnc1[C@@H](C)NS(=O)(=O)c1cc(F)cc(Cl)c1C [Compound 145]              101
13  CCn1c(Oc2ccc(F)cc2)nnc1[C@@H](C)NS(=O)(=O)c1ccc(OC(F)F)cc1 [Compound 263]             82.6
14  CCn1c(Oc2cccc(N3CCN(C)CC3)c2)nnc1[C@@H](C)NS(=O)(=O)/C=C/c1ccccc1 [Compound 146]              102
15  CCn1c(Oc2ccc(F)cc2)nnc1[C@@H](C)NS(=O)(=O)c1cc(Cl)cc(Cl)c1 [Compound 213]              102

* * *

# target.system: human Edg-1 (S1P1) (Homo sapiens)
# Construct: expressed in transfected cells; host or cells: HEK-293
# experiment: S1P1 binding assay: inhibition of [33P]-S1P binding to membrane fraction of HEK-293 cells transferred with the human Edg-1 (S1P1) gene
# run.conditions: test compound at 10 μM; inhibition of [33P]-S1P binding to the membrane fraction of HEK-293 cells expressing human Edg-1 (S1P1)
property.label: inhibition at 10 µM

In [3]: df
Out[3]:
                          structure_notation                      target_system  result
 0  CCn1c(Oc2ccc(-n3cccc3)cc2)nnc1[C@@H](C)NS(=O)(=O)c1ccc(Cl)c(Cl)c1  human Edg-1 (S1P1) (Homo sapiens)    100%
 1  CCn1c(Oc2ccc(F)cc2)nnc1[C@@H](C)NS(=O)(=O)c1ccsc1  human Edg-1 (S1P1) (Homo sapiens)   50.8%
 2  CCn1c(Oc2cc(OC)c(OC)c(OC)c2)nnc1[C@@H](C)NS(=O)(=O)c1ccc(Cl)c(Cl)c1  human Edg-1 (S1P1) (Homo sapiens)   95.4%
 3  CCn1c(Oc2ccc(F)cc2)nnc1[C@@H](C)NS(=O)(=O)c1ccc(C(C)C)cc1  human Edg-1 (S1P1) (Homo sapiens)   68.7%
 4  CCn1c(Oc2ccc(F)cc2)nnc1[C@@H](C)NS(=O)(=O)c1cc(C)ccc1F  human Edg-1 (S1P1) (Homo sapiens)   79.6%
 5  CCn1c(Oc2ccc3cc[nH]c3c2)nnc1[C@@H](C)NS(=O)(=O)c1c(C)cc(OC)c(C)c1C  human Edg-1 (S1P1) (Homo sapiens)   65.8%
 6  CCn1c(Oc2ccc(F)cc2)nnc1[C@@H](C)NS(=O)(=O)c1ccc(C)c(C)c1  human Edg-1 (S1P1) (Homo sapiens)   91.8%
 7  CCn1c(Oc2cccc(N3CCN(C)CC3)c2)nnc1[C@@H](C)NS(=O)(=O)c1ccc2c(Cl)cccc2c1  human Edg-1 (S1P1) (Homo sapiens)     93%
 8  CCn1c(Nc2ccc(C)cc2)nnc1[C@@H](C)NS(=O)(=O)c1ccc(Cl)c(Cl)c1  human Edg-1 (S1P1) (Homo sapiens)    102%
 9  CCn1c(Oc2ccc(F)cc2)nnc1[C@@H](C)NS(=O)(=O)c1cccc(Br)c1  human Edg-1 (S1P1) (Homo sapiens)   96.9%
10  CCn1c(Oc2cccc(N(C)CCN(C)C)c2)nnc1[C@@H](C)NS(=O)(=O)c1ccc(Cl)c(Cl)c1  human Edg-1 (S1P1) (Homo sapiens)    104%
11  CCn1c(Oc2cccc(N3CCN(C)CC3)c2)nnc1[C@@H](C)NS(=O)(=O)c1ccc(Cl)c(Cl)c1  human Edg-1 (S1P1) (Homo sapiens)    106%
12  CCn1c(Oc2ccccc2)nnc1[C@@H](C)NS(=O)(=O)c1ccc(Cl)c(Cl)c1  human Edg-1 (S1P1) (Homo sapiens)   99.4%
13  CCn1c(Oc2cccc(N3CCCCC3)c2)nnc1[C@@H](C)NS(=O)(=O)c1ccc(Cl)c(Cl)c1  human Edg-1 (S1P1) (Homo sapiens)    103%
14  CCn1c(Oc2ccc(F)cc2)nnc1[C@@H](C)NS(=O)(=O)c1ccc(C)c(Cl)c1  human Edg-1 (S1P1) (Homo sapiens)   94.4%
15  CCn1c(Oc2ccc3cc[nH]c3c2)nnc1[C@@H](C)NS(=O)(=O)c1cc(Br)ccc1OC  human Edg-1 (S1P1) (Homo sapiens)     88%
16  CCn1c(Oc2cccc(N3CCN(C)CC3)c2)nnc1[C@@H](C)NS(=O)(=O)c1ccc(Br)c(C)c1  human Edg-1 (S1P1) (Homo sapiens)    109%
17  CCn1c(Oc2ccc(F)cc2)nnc1[C@@H](C)NS(=O)(=O)c1cccc(OC)c1  human Edg-1 (S1P1) (Homo sapiens)   91.4%

* * *

# target.system: human Edg-1 (S1P1) (Homo sapiens, UniProt P21453)
# Construct: expressed in transfected cells; host or cells: HEK-293
# experiment: S1P1 binding assay: inhibition of [33P]-S1P binding to membrane fraction of HEK-293 cells transferred with the human Edg-1 (S1P1) gene
# run.conditions: test compound at 10 μM; inhibition of [33P]-S1P binding to the membrane fraction of HEK-293 cells expressing human Edg-1 (S1P1)
# Method: The membrane fraction was obtained by treating the cells with a solubilizing buffer (1 mM Tris/HCl, pH 7.2) for 10 minutes on ice, centrifuging at 1000×g for 5 minutes to remove insoluble fractions, and then centrifuging at 40000×g for 30 minutes at 4° C. […] The same procedure was carried out in the absence of the test compound, and the amount (B) of [^33P]-S1P bound was calculated. […]
Catalogue of inhibition at 10 µM readings, one per entry.
property.label: inhibition at 10 µM

In [3]: df
Out[3]:
                         structure_notation  result
0  CCn1c(Oc2ccc(F)cc2)nnc1[C@@H](C)NS(=O)(=O)c1cc(C)cc(C)c1   79.6%
1  CCn1c(Oc2ccc(OCCN(C)C)cc2)nnc1[C@@H](C)NS(=O)(=O)c1ccc(Cl)c(Cl)c1    100%
2  CCn1c(Oc2ccc3cc[nH]c3c2)nnc1[C@@H](C)NS(=O)(=O)c1ccc(C(F)(F)F)cc1   96.5%
3  CCn1c(Oc2ccc(F)cc2)nnc1[C@@H](C)NS(=O)(=O)c1ccc(-c2ccno2)s1   67.9%
